Hello, the source for this data is ChEMBL document CHEMBL1201862, in case you need it.

Run description: HEp-2 cell cytotoxicity, dose response, cytotoxicity control for RSV inhibitor project, HTS (AID 2410)
Type: functional
Conditions: human respiratory syncytial virus
Active and inactive are the calls of the source. How the calls were made is not given here.
The following compounds are shown together with reported CC50 values.

# example entries with known answers
smiles_string=COc1cc(C(=O)Sc2ccc(Cl)cc2)cc(OC)c1OC property_measured=CC50 value_observed="32.8 µM (active)"
smiles_string=CCOC(=O)c1c(C)[nH]c(N=Nc2ccccc2)c1C property_measured=CC50 value_observed="34.9 µM (active)"
smiles_string=O=C(COc1cccc2ccccc12)N/N=C/c1ccc(Sc2nc3ccccc3s2)o1 property_measured=CC50 value_observed="10.8 µM (active)"
smiles_string=COc1ccc(-c2nnc(SCC(=O)Nc3sc4c(c3C#N)CCCC4)n2-c2ccccc2)cc1 property_measured=CC50 value_observed="9.89 µM (active)"
smiles_string=O=C(CN1CCN(S(=O)(=O)c2ccc(Br)cc2)CC1)N/N=C/c1ccc(Br)s1 property_measured=CC50 value_observed="22.2 µM (active)"

Now consider a different compound.
For record Cc1nn(CCO)c2nc(-c3cccs3)cc(C(F)(F)F)c12 the listed CC50 is > 50 µM (active)
